Sourced from ChEMBL document CHEMBL1201862

Entries and their GI50 values follow.
- Test system: OVCAR-5
- Protocol Text: NCI tumour cell line growth inhibition, 48 h
Active and inactive are the calls of the source. No stated cut-off is given here; in the data, active = GI50 up to about 1.1 µM and inactive = higher.

Exercise: Please report the recorded GI50 for `CNC(=O)Oc1ccc(-c2cn3cc(OC(=O)NC)ccc3n2)cc1` .
Key: > 100 µM (inactive)

Exercise: Proceed to O=C1CC2C(=O)c3ccccc3CC2c2ccccc21 (centres undefined)
Key: > 100 µM (inactive)

Exercise: Proceed to COC(=O)C1(Cc2ccccc2)Cc2cc3c(cc2C1=O)CCC3 (centres undefined)
Key: 58.9 µM (inactive)

Exercise: Proceed to CC(C)=CC(Cc1ccccc1)S(=O)(=O)c1nc2ccccc2s1 (centres undefined)
Key: 19.2 µM (inactive)

Exercise: Proceed to `CCOC(=O)C1=NN(c2ccccc2)C2=CC(C)=NN(C)C(=S)N21`
Key: > 100 µM (inactive)

Exercise: Proceed to `COc1ccc2c(c1)/C(=C\c1c(-c3ccccc3)nc3n1CCS3)C(=O)N2`
Key: 14.8 µM (inactive)

Exercise: Proceed to CC(=O)NC1c2ccccc2C(C)(C)C12CCC1(CC2)OCCO1 (centres undefined)
Key: > 100 µM (inactive)

Exercise: Proceed to OC[C@H]1CCCC1O (some centres undefined)
Key: > 100 µM (inactive)

Exercise: Proceed to CC1OC(OC2C(CO)OC(O[C@H]3CC[C@@]4(C)C(=CC[C@H]5[C@@H]6C[C@@H]7O[C@](O)(CC[C@@H](C)COC8OC(CO)C(O)C(O)C8O)[C@@H](C)[C@@H]7[C@@]6(C)CC[C@@H]54)C3)C(OC3OC(C)C(O)C(O)C3O)C2O)C(O)C(O)C1O (some centres undefined)
Key: 2.52 µM (inactive)

Exercise: Proceed to NC(Cc1ccc2oc3cc(=O)c4ccccc4c-3nc2c1)C(=O)O (centres undefined)
Key: 66.7 µM (inactive)

Exercise: Proceed to `Cc1nc2c(=O)[nH]c(=O)n(C)c2[nH]c1=O.c1ccncc1`
Key: > 100 µM (inactive)

Exercise: Proceed to COc1ccc2oc(S(=O)(=O)N3CC(CCl)c4ccc(N)cc43)cc2c1 (centres undefined)
Key: > 19.3 µM (inactive)

Exercise: Proceed to `O=c1c2cccnc2ncn1CCCN1CCCCC1`
Key: > 100 µM (inactive)

Exercise: Proceed to `COC(OC)c1cc2c(cc1C=O)OCO2`
Key: > 100 µM (inactive)

====

- Test system: LOX IMVI
- Protocol Text: NCI tumour cell line growth inhibition, 48 h
Calls of active or inactive are those of the source. Cut-off read from the data, not from the text of the source: active = GI50 up to about 1.1 µM and inactive = higher.
Measure: GI50

O=C1C[C@H]2CC3(CC[C@H]2CN1)OCCO3: > 100 µM (inactive)
O=C(O)c1[nH]c2c([N+](=O)[O-])cc([N+](=O)[O-])cc2c1C(=O)O: > 100 µM (inactive)
O=C1OC(=O)C2=C1C(c1cccs1)C=C(c1cccnc1)N2c1ccncc1 (stereo unspecified): 13.2 µM (inactive)
O=NN1CCNC1Cc1ccccc1 (stereo unspecified): > 100 µM (inactive)
C[C@]12CC[C@@H]3c4cc(Br)c(O)c(Br)c4CC[C@H]3[C@@H]1CC(Br)C2=O (stereo partly specified): 3.57 µM (inactive)
CN(C)CCNc1c([N+](=O)[O-])sc2ccc(Cl)cc12: 3.49 µM (inactive)
CN(c1ccccc1)S(=O)(=O)c1ccc([N+](=O)[O-])cc1: > 100 µM (inactive)
O=C(CN1CCN(Cc2ccccc2)CC1)N1CCCn2c1nc1ccccc1c2=O: > 100 µM (inactive)
OCCN1CCN(c2nc(N3CCCC3)c3nc(Cl)c(NCc4ccccc4)nc3n2)CC1: 5.4 µM (inactive)
CCCCCCCCCCSC(=O)NC: 32.9 µM (inactive)

Exercise: Item: COc1ccc2c(c1)OC(c1cccnc1)C(c1ccccc1)C2=O (stereo unspecified) Test system: LOX IMVI Read-out: GI50 Value: ?
Key: > 100 µM (inactive)
